Value source: ChEMBL document CHEMBL3045228

Test: Inhibition of Acyl-coenzyme A:cholesterol acyltransferase (unknown origin) assessed as intracellular cholesterol esterification by cell based assay
Conditions: Homo sapiens; read-out: pIC50 (converted)
PROPERTY_NAME: IC50 (µM)

CCCCCC(C)N(Cc1ccc(CCC(C)C)cc1)C(Nc1ccc(N(C)C)cc1C)=C1C(=O)OC(C)(C)OC1=O (stereo not drawn) :: 0.16
CC(C)CCc1ccc(CN(C(Nc2ccc(N(C)C)cc2)=C2C(=O)OC(C)(C)OC2=O)C(CC(C)C)CC(C)C)cc1 :: 1.3
COc1ccc(NC(=C2C(=O)OC(C)(C)OC2=O)N(Cc2ccc(C(C)(C)C)cc2)C(C)CCCC(C)C)c(OC)c1 (stereo not drawn) :: 0.23
CCCCCCC(CCCCCC)N(Cc1ccc(CC(C)C)cc1)C(Nc1ccc(N(C)C)cc1)=C1C(=O)OC(C)(C)OC1=O :: 0.044
COc1ccc(NC(=C2C(=O)OC(C)(C)OC2=O)N(Cc2ccc(CC(C)(C)C)cc2)CC2CCCC2c2ccccc2)c(OC)c1 (stereo not drawn) :: 0.29
CCCCCCOc1ccc(NC(NCCCCCCCCc2ccc(C(C)(C)C)cc2)=C2C(=O)OC(C)(C)OC2=O)cc1 :: 0.5

A = CCCCC(CC)N(Cc1ccc(CC(C)(C)C)cc1)C(Nc1ccc(N(C)C)cc1)=C1C(=O)OC(C)(C)OC1=O (stereo not drawn)
B = CCCCCC(C)N(Cc1ccc(CC(C)(C)C)cc1)C(Nc1c(C)cc(N(C)C)cc1C)=C1C(=O)OC(C)(C)OC1=O (stereo not drawn)
Two entries are listed, A and B . Which one carries the higher IC50? Which one? Tell me its label.
A
(A: 0.64 µM, B: 0.38 µM)
